These entries and their values trace back to patent US20240116985A1.

Reported values of Solubility for individual entries
Assay: Solubility in PBS
Type: physicochemical
Hi! Could you send only the number? It should be in µM, unit omitted.

**Q:** Quick one: give measured Solubility for CC(=O)N1CCC[C@]12CC=CCCCC1(CCCC=CCCCOC(=O)N3CC[C@@](C(=O)N[C@@H](Cc4ccccc4)C(=O)N[C@@H](Cc4csc5ccccc45)C(=O)N[C@@H](CCC(N)=O)C(N)=O)(C3)NC(=O)[C@H](CC(C)C)NC(=O)[C@H](Cc3ccccc3)NC(=O)[C@H](C)NC(=O)[C@H](CCCCNC(C)C)NC(=O)[C@H](CCCCN)NC(=O)[C@H](CC(=O)O)NC1=O)NC(=O)[C@H](C)NC(=O)[C@H](CC(N)=O)NC2=O (some centres unmarked)
**A:** 10

Pending compound:
**Q:** # return recorded Solubility for input CC(=O)N1CCC[C@]12CC=CCCCC1(CCCC=CCCCOC(=O)N3CC[C@@](C(=O)N[C@@H](Cc4ccsc4)C(=O)N[C@@H](Cc4csc5ccccc45)C(=O)N[C@@H](CCC(N)=O)C(N)=O)(C3)NC(=O)[C@H]([C@@H](C)O)NC(=O)[C@H](Cc3ccccc3)NC(=O)[C@H](C)NC(=O)[C@H](C)NC(=O)[C@H](Cc3cccc(C(=O)O)c3)NC(=O)[C@H](CC(=O)O)NC1=O)NC(=O)[C@H](CC(C)(C)C)NC(=O)[C@H](CC(=O)O)NC2=O (some centres unmarked) [I-980]
**A:** 19
